test_system: T1, recombinant hMCAM-His (human, UniProt P43121 24-559)
T1 construct: not shown: His tag
T1 chain: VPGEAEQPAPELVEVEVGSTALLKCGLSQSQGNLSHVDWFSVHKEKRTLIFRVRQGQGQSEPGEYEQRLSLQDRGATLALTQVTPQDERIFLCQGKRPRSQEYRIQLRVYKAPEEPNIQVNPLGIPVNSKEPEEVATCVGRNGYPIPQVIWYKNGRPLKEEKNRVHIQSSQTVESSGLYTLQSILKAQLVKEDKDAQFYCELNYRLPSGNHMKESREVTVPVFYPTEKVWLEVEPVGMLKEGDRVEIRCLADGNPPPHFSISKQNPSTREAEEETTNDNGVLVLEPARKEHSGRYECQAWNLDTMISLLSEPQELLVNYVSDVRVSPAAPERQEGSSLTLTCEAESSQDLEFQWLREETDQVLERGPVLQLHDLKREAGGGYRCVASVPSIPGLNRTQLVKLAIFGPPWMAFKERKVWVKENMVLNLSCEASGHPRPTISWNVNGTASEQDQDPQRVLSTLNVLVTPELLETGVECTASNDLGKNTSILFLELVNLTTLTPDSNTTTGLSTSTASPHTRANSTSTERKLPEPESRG
protocol_notes: ForteBio Octet Red, antibody on anti-human Fc sensors, hMCAMHis analyte, 1:1 fit; relative to rodent 2120
Protocol: The affinities were measured using the ForteBio Octet Red. Anti-human Fc sensors were used to capture the humanized antibodies, and several concentrations of hMCAMHis analyte were used to determine the affinity using a 1:1 fitting model.
measurement_name: Fold over rodent (Forte affinity) (fold)
State the answer as a number, implicitly in fold.

# binder, unit, Fold over rodent (Forte affinity)
data = [
    ("h2120_VH1 + h2120_VL1 (antibody, human IgG1, V domains shown, also called Standard VH + standard VL) VH: QVTLKESGPVLVKPTETLTLTCTVSGFSLTSNGVSWVRQPPGKALEWIAAISSGGTTYYNSAFKSRLTISRDTSKSQVVLTMTNMDPVDTATYYCARRYGYGWYFDFWGQGTLVTVSS VL: DIQMTQSPSSLSASVGDRVTITCKASQNIYNSLAWYQQKPGKAPKVLIFNANSLQTGIPSRFSGSGSGTDFTLTISSLQPEDFATYYCQQFYSGYTFGQGTKLEIK", "fold", 8.8),
]

Could you now consider this next binder?
input: # Fold over rodent (Forte affinity) lookup, item h2120_VH5 + h2120_VL3 (antibody, V domains shown, also called h2120VH5VL3; VH5VL3) VH: QVTLKESGPVLVKPTETLTLTCTVSGFSLTSNAVSWVRQPPGKALEWIAAISSGGTTYYNSAFKSRLTISRDTSKSQVVLTMTNMDPVDTATYYCARRYGYGWYFDFWGQGTLVTVSS VL: DIQMTQSPSSLSASVGDRVTINCKASQNIYNSLAWYQQKPGKAPKVLIFNANSLQTGIPSRFSGSGSGTDFTLTISSLQPEDFATYYCQQFYSGYTFGQGTKLEIK
output: 1.1
